- protocol-description: qHTS Assay for Lipid Storage Modulators (AID 1519)
- applied-conditions: Drosophila S3 cells, BODIPY lipid droplet/cell ratio, laser cytometry; at 57.5 µM (top of the series); cells loaded with oleic acid
Inconclusive results are not listed.
# activity change, negative = inhibition >= 10% gives condition met, anything below gives condition not met

Example entries and their recorded answers appear below.
{"compound": "CC1CCC2(C(=O)O)CCC3(C)C(=CCC4C3(C)CCC3[C@@]4(C)CC(O)C(O)[C@@]3(C)CO)C2C1C (stereo not given in full)", "group": "condition not met"}
{"compound": "CCCCC(=O)Oc1ccccc1C(=O)O", "group": "condition not met"}
{"compound": "CCCCCC(CC(=O)O)C(=O)O (stereo not given)", "group": "condition met"}

Let us examine a further case.
# check: activity change, negative = inhibition of `O=S(=O)(O)c1cc(N=C=S)ccc1/C=C/c1ccc(N=C=S)cc1S(=O)(=O)O` is greater than or equal to 10% condition not met
